Tested on: HepG2 cells
Assay: MTT cytotoxicity assay, 72 h
Format: cell-based, Human
Lab note: anything with SI (CC50 HepG2 / IC50 3D7) below 10 is marked y; values at 10 or higher are marked n.

{"molecule": "COc1ccc2c(Nc3ccccc3)ccnc2c1 [LDT-622]", "target.under.test": "HepG2 cells", "category": "n"}
{"molecule": "COc1cc(Nc2ccnc3cc(Br)ccc23)cc(OC)c1OC [LDT-624]", "target.under.test": "HepG2 cells", "category": "n"}
{"molecule": "COc1cc(Nc2ccnc3ccc(Br)cc23)cc(OC)c1OC [LDT-619]", "target.under.test": "HepG2 cells", "category": "y"}
{"molecule": "CCOc1cc2nccc(Nc3cc(OC)c(OC)c(OC)c3)c2cc1OCC [LDT-620]", "target.under.test": "HepG2 cells", "category": "y"}

###

Tested on: P. berghei ookinete formation
Experiment: In vitro inhibition of ookinete formation (nLuc conversion assay), 24 h
Type: cell-based, Plasmodium berghei
Conditions: Plasmodium berghei, read-out: IC50 inhibition of ookinete formation, mean, N = 7
pIC50: −log10 of the molar value.
parameter.measured: pIC50

{"molecule.smiles": "COc1cc2nccc(Nc3cccc(Oc4ccccc4)c3)c2cc1OC", "observed.measurement": 5.82}

###

System: P. falciparum 7G8^F145I
Assay: ABS susceptibility, pfcrt-edited line
Type: cell-based
Settings: Plasmodium falciparum

{"molecule.smiles": "COc1cc2nccc(Nc3cccc(Oc4ccccc4)c3)c2cc1OC", "IC50": "0.439 µM"}

###

Tested on: COS-7 cells
Assay: MTT cytotoxicity assay, 72 h
Format: cell-based, monkey

{"molecule": "COc1cccc(Nc2ccnc3ccccc23)c1 [LDT-617]", "qualifying.sign": "=", "SI (CC50 COS-7 / IC50 3D7)": 28.9}
{"molecule": "COc1ccc2c(Nc3ccccc3)ccnc2c1 [LDT-622]", "qualifying.sign": "=", "SI (CC50 COS-7 / IC50 3D7)": 17.5}
{"molecule": "COc1cc(Nc2ccnc3ccccc23)cc(OC)c1 [LDT-621]", "qualifying.sign": "=", "SI (CC50 COS-7 / IC50 3D7)": 2.8}
{"molecule": "COc1ccc(Nc2ccnc3c(F)cc(F)cc23)cc1OC [LDT-626]", "qualifying.sign": "=", "SI (CC50 COS-7 / IC50 3D7)": 9.3}
{"molecule": "COc1ccc(Nc2ccnc3ccc(F)cc23)cc1OC [LDT-625]", "qualifying.sign": "=", "SI (CC50 COS-7 / IC50 3D7)": 6.2}
{"molecule": "COc1cc2nccc(Nc3cccc(Oc4ccccc4)c3)c2cc1OC [LDT-623]", "qualifying.sign": "=", "SI (CC50 COS-7 / IC50 3D7)": 3.8}
{"molecule": "CCOc1cc2nccc(Nc3cc(OC)c(OC)c(OC)c3)c2cc1OCC [LDT-620]", "qualifying.sign": "=", "SI (CC50 COS-7 / IC50 3D7)": 6.3}
{"molecule": "COc1cc(Nc2ccnc3ccc(Br)cc23)cc(OC)c1OC [LDT-619]", "qualifying.sign": "=", "SI (CC50 COS-7 / IC50 3D7)": 0.7}
{"molecule": "COc1cc(Nc2ccnc3cc(Br)ccc23)cc(OC)c1OC [LDT-624]", "qualifying.sign": "=", "SI (CC50 COS-7 / IC50 3D7)": 26.1}
{"molecule": "COc1ccc(Nc2ccnc3ccccc23)cc1OC [LDT-618]", "qualifying.sign": ">", "SI (CC50 COS-7 / IC50 3D7)": 56.5}
{"molecule": "COc1ccc(Nc2ccnc3ccccc23)cc1 [LDT-627]", "qualifying.sign": "=", "SI (CC50 COS-7 / IC50 3D7)": 22.1}

###

Test system: P. falciparum Dd2^F145I
Assay: ABS susceptibility, pfcrt-edited line
Format: cell-based
Settings: Plasmodium falciparum

{"molecule.smiles": "COc1cc2nccc(Nc3cccc(Oc4ccccc4)c3)c2cc1OC", "target.under.test": "P. falciparum Dd2^F145I", "IC50 (nM)": 541}

###

Assay: MTT cytotoxicity assay, 72 h
Assay type: cell-based, Human
Settings: human, HepG2 cells; MTT, 72 h, N = 3
The following molecules are listed with their measured CC50 at 72 h values.

{"molecule.smiles": "COc1ccc(Nc2ccnc3ccccc23)cc1", "CC50 at 72 h": "12.7 µM"}
{"molecule.smiles": "COc1ccc(Nc2ccnc3ccc(F)cc23)cc1OC", "CC50 at 72 h": "33.3 µM"}
{"molecule.smiles": "COc1cc2nccc(Nc3cccc(Oc4ccccc4)c3)c2cc1OC", "CC50 at 72 h": "1.3 µM"}
{"molecule.smiles": "COc1cccc(Nc2ccnc3ccccc23)c1", "CC50 at 72 h": "40.8 µM"}
{"molecule.smiles": "CCOc1cc2nccc(Nc3cc(OC)c(OC)c(OC)c3)c2cc1OCC", "CC50 at 72 h": "1.6 µM"}
{"molecule.smiles": "COc1ccc(Nc2ccnc3c(F)cc(F)cc23)cc1OC", "CC50 at 72 h": "53.8 µM"}
{"molecule.smiles": "COc1cc(Nc2ccnc3ccccc23)cc(OC)c1", "CC50 at 72 h": "0.5 µM"}
{"molecule.smiles": "COc1cc(Nc2ccnc3cc(Br)ccc23)cc(OC)c1OC", "CC50 at 72 h": "32.5 µM"}
{"molecule.smiles": "COc1ccc2c(Nc3ccccc3)ccnc2c1", "CC50 at 72 h": "3 µM"}
{"molecule.smiles": "COc1ccc(Nc2ccnc3ccccc23)cc1OC", "CC50 at 72 h": "29.8 µM"}

###

Test system: P. falciparum Dd2 ABS parasites
Experiment: ABS parasite survival assay, 72 h, flow cytometry
Type: cell-based
Conditions: Plasmodium falciparum, DD2, read-out: IC50 Dd2

{"compound": "COc1cc2nccc(Nc3cccc(Oc4ccccc4)c3)c2cc1OC [LDT-623]", "IC50": "365 nM"}
